biological target: Rat AhR (Rattus norvegicus); assay: Competitive binding assay against [3H]-TCDD, recombinant rat AhR
Sequence (P41738 10-853): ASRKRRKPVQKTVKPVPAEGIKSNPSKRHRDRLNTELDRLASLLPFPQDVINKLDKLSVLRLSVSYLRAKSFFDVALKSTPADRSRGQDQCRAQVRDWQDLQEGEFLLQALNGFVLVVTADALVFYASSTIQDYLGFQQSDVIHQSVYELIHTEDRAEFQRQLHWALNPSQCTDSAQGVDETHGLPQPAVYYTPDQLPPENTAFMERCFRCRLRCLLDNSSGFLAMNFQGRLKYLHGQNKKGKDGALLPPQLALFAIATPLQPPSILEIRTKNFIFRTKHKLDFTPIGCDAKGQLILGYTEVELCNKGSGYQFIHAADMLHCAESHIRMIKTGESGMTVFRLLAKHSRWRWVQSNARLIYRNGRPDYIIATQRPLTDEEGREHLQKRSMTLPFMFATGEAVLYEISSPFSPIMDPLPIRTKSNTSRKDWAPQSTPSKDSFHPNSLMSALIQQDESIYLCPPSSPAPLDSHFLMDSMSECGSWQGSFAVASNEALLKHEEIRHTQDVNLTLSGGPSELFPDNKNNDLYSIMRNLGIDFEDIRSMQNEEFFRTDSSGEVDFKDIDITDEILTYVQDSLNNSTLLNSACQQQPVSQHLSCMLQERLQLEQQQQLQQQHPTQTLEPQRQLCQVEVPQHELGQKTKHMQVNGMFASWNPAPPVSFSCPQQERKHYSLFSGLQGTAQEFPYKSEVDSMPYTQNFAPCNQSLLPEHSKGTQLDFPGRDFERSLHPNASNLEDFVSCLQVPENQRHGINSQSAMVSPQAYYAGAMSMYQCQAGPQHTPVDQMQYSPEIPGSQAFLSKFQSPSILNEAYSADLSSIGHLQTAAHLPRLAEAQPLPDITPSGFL
compounds and their reported pKi
pKi (log units): -log10 of the concentration in mol/L.

• Clc1ccc(-c2cc(Cl)c(Cl)c(Cl)c2)cc1Cl = 7.61

Prompt line: Report pKi for "Clc1cc2c(cc1Cl)Oc1c(cc(Cl)c(Cl)c1Cl)O2" please.
Response line: 9.34

Prompt line: Report pKi for "Clc1cc2oc3cc(Cl)c(Cl)cc3c2cc1Cl" please.
Response line: 9.44

# credit: paper PMC2621304
